Biological target: T1, human CD19 (human, UniProt P15391 20-556)
T1 construct: whole, on cells; also called huCD19
T1 sequence (looked up): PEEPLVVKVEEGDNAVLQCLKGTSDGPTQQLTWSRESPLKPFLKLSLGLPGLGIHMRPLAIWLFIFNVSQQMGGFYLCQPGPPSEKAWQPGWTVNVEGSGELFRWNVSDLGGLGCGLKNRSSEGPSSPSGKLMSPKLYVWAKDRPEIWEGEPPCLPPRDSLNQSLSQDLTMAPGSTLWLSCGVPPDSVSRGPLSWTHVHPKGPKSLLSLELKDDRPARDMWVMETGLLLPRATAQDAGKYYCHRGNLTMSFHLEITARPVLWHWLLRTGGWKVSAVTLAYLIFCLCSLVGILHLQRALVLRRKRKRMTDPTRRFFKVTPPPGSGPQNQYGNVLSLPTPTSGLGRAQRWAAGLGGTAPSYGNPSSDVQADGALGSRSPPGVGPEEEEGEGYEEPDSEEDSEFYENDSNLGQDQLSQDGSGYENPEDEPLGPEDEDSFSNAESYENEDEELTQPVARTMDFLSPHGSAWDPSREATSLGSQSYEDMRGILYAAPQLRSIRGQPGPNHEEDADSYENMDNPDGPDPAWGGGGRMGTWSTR
Experiment: FACS on human PBMC gated on CD20+ B lymphocytes, 30 and 3 µg/mL
reported metric: binding result

Please review the entries below; each comes with its answer.
>>> assay_value("10D8 antibody (antibody, human IgG1, V domains shown, also called human IgG1 10D8 anti-CD19 antibody) VH: QVQLVQSGAEVKKPGSSVKVSCKASGGTFSSYAISWVRQAPGQGLEWMGGIIPIFGTANYAQKFQGRVTITADESTSTAYMELSSLRSEDTAVYYCARDRGYDYVWGSYRYGAFDIWGQGTLVTVSS VL: QSALTQPASVSGSPGQSITISCTGTSSDVGGYNYVSWYQQHPGKAPKLMIYEVSNRPSGVSNRFSGSKSGNTASLTISGLQAEDEADYYCSSYDVWVPHMVFGGGTKLTVL")
"binds"
>>> assay_value("9G8 antibody (antibody, human IgG1, V domains shown, also called human IgG1 9G8 anti-CD19 antibody) VH: EVQLVQSGAEVKKPGESLKISCKGSGYSFTSYWIGWVRQMPGKGLEWMGIIYPGDSDTRYSPSFQGQVTISADKSISTAYLQWSSLKASDTAMYYCARGVSGIYNLHGFDIWGQGTLVTVSS VL: DIQMTQSPSSLSASVGDRVTITCRASQSISSYLNWYQQKPGKAPKLLIYAASSLQSGVPSRFSGSGSGTDFTLTISSLQPEDFATYYCQQGRFGSPFTFGQGTKVEIK")
"binds"
>>> assay_value("F6 antibody (antibody, human IgG1, V domains shown, also called human IgG1 F6 anti-CD19 antibody) VH: EVQLVQSGAEVKKPGESLKISCKGSGYSFTSYWIGWVRQMPGKGLEWMGIIYPGDSDTRYSPSFQGQVTISADKSISTAYLQWSSLKASDTAMYYCARVWYYDFWSGADAFDIWGQGTLVTVSS VL: EIVMTQSPATLSVSPGERATLSCRASQSVSSNLAWYQQKPGQAPRLLIYGASTRATGIPARFSGSGSGTEFTLTISSLQSEDFAVYYCQQGSLEAPQTFGQGTKVEIK")
"binds"
>>> assay_value("7F11 antibody (antibody, human IgG1, V domains shown, also called human IgG1 7F11 anti-CD19 antibody) VH: EVQLVQSGAEVKKPGESLKISCKGSGYSFTSYWIGWVRQMPGKGLEWMGIIYPGDSDTRYSPSFQGQVTISADKSISTAYLQWSSLKASDTAMYYCARGVSGIYNLHGFDIWGQGTLVTVSS VL: DIQMTQSPSSLSASVGDRVTITCRASQSISSYLNWYQQKPGKAPKLLIYAASSLQSGVPSRFSGSGSGTDFTLTISSLQPEDFATYYCQQGMWDNPFTFGQGTKVEIK")
"binds"

[in] Can you look up the measured binding result of 7F1 antibody (antibody, human IgG1, V domains shown, also called human IgG1 7F1 anti-CD19 antibody) VH: EVQLVQSGAEVKKPGESLKISCKGSGYSFTSYWIGWVRQMPGKGLEWMGIIYPGDSDTRYSPSFQGQVTISADKSISTAYLQWSSLKASDTAMYYCARGDYWTGFAYWGQGTLVTVSS VL: QSVLTQPPSVSAAPGQKVTISCSGSSSNIGNNYVSWYQQLPGTAPKLLIYDNNKRPSGIPDRFSGSKSGTSATLGITGLQTGDEADYYCGTWDLGWNSVFGGGTKLTVL for me?
[out] binds
